molecular target: Alpha-2A adrenergic receptor (Homo sapiens); test: Safety47 Scan (DiscoverX - Eurofins)
Sequence (P08913 whole entry): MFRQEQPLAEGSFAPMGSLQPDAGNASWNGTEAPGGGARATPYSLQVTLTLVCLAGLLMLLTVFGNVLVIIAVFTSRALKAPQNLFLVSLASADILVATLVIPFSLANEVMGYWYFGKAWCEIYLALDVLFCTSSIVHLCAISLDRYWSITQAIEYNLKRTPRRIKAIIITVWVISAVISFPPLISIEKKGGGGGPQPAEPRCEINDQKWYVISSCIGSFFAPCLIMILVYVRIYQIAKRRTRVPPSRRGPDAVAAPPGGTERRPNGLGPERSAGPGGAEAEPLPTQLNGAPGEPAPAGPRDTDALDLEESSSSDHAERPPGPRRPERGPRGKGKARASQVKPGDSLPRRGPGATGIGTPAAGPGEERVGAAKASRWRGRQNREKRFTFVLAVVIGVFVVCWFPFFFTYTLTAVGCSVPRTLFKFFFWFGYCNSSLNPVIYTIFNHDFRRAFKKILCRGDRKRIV
experimental-endpoint: EC50

>>> test_result("CC(C)(O)c1ccc(N2Cc3c(ccnc3-c3ccc(F)cc3OCC(F)(F)F)C2=O)cc1")
"> 10 µM"

----------
target: Insulin receptor (Homo sapiens)
pIC50: −log10 of the molar value.
experimental-endpoint: pIC50

>>> test_result("CC(C)(O)c1ccc(N2Cc3c(ccnc3-c3ccc(F)cc3OCC(F)(F)F)C2=O)cc1")
"< 5.00"

----------
molecular target: Muscarinic acetylcholine receptor M1 (Homo sapiens); assay: Safety47 Scan (DiscoverX - Eurofins)
Sequence (P11229 whole entry): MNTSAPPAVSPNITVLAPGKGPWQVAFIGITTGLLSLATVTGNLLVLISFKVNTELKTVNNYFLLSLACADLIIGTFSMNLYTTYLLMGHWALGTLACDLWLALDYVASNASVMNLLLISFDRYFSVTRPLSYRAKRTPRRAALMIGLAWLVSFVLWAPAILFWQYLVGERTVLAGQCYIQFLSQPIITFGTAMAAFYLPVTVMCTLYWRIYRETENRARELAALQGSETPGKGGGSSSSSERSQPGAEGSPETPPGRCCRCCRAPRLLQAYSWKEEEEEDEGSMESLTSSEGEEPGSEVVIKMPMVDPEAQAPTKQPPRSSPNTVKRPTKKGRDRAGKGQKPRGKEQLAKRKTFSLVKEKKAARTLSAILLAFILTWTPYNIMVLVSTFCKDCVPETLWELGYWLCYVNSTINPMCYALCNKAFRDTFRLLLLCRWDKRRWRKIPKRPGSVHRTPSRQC
pEC50: −log10 of the molar value.
experimental-endpoint: pEC50

>>> test_result("CC(C)(O)c1ccc(N2Cc3c(ccnc3-c3ccc(F)cc3OCC(F)(F)F)C2=O)cc1")
"< 5.00"

----------
molecular target: 5-hydroxytryptamine receptor 3A (Homo sapiens); assay: Safety47 Scan (DiscoverX - Eurofins)
experimental-endpoint: EC50

>>> test_result("CC(C)(O)c1ccc(N2Cc3c(ccnc3-c3ccc(F)cc3OCC(F)(F)F)C2=O)cc1")
"> 10 µM"

----------
biological target: Beta-1 adrenergic receptor (Homo sapiens)
Sequence (P08588 whole entry): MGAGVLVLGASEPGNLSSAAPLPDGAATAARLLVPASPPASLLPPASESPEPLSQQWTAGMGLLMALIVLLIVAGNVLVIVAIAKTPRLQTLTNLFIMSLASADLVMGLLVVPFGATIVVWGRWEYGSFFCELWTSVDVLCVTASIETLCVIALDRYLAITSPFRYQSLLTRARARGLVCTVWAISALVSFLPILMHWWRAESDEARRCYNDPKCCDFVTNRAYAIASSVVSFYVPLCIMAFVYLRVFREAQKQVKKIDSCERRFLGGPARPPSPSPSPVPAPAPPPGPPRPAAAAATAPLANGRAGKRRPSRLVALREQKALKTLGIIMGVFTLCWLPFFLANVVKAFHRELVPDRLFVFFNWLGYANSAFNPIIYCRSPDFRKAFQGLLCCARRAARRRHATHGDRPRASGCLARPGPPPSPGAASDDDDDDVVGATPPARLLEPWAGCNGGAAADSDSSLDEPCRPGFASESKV
pIC50: −log10 of the molar value.
experimental-endpoint: pIC50

>>> test_result("CC(C)(O)c1ccc(N2Cc3c(ccnc3-c3ccc(F)cc3OCC(F)(F)F)C2=O)cc1")
"< 5.00"

----------
target: Voltage-gated inwardly rectifying potassium channel KCNH2 (Homo sapiens, UniProt Q12809); assay: Safety47 Scan (DiscoverX - Eurofins)
Sequence (Q12809 whole entry): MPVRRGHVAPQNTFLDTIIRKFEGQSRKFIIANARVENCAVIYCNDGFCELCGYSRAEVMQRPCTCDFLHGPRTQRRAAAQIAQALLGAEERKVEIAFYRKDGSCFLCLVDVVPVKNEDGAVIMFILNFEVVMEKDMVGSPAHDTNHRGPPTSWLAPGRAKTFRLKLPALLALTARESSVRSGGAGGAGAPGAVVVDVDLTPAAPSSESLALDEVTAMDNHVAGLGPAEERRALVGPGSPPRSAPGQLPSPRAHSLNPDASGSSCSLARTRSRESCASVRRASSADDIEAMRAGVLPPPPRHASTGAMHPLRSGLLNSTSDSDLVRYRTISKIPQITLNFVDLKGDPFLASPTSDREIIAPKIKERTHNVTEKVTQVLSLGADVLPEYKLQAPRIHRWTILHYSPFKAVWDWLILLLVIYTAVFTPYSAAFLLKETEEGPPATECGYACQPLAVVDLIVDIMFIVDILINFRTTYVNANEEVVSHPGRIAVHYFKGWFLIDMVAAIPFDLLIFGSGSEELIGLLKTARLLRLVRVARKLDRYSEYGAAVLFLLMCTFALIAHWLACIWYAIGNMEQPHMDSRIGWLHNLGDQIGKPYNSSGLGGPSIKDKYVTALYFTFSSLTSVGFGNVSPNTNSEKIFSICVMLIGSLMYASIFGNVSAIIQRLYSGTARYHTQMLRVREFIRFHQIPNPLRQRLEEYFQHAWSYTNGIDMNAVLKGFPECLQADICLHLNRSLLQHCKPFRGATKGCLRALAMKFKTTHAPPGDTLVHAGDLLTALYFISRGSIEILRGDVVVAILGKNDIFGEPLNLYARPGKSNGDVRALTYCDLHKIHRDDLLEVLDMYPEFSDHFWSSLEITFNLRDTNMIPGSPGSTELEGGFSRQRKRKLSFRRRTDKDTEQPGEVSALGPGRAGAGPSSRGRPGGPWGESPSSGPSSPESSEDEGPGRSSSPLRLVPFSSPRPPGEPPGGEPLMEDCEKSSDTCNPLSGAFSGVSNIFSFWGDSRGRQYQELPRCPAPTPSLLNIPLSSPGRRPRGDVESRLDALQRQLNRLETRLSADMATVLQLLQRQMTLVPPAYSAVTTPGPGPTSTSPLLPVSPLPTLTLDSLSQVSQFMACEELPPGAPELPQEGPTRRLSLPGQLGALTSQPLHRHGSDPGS
pIC50: −log10 of the molar value.
experimental-endpoint: pIC50

>>> test_result("CC(C)(O)c1ccc(N2Cc3c(ccnc3-c3ccc(F)cc3OCC(F)(F)F)C2=O)cc1")
"< 5.00"

----------
biological target: 5-hydroxytryptamine receptor 3A (Homo sapiens, UniProt P46098)
Sequence (P46098 whole entry): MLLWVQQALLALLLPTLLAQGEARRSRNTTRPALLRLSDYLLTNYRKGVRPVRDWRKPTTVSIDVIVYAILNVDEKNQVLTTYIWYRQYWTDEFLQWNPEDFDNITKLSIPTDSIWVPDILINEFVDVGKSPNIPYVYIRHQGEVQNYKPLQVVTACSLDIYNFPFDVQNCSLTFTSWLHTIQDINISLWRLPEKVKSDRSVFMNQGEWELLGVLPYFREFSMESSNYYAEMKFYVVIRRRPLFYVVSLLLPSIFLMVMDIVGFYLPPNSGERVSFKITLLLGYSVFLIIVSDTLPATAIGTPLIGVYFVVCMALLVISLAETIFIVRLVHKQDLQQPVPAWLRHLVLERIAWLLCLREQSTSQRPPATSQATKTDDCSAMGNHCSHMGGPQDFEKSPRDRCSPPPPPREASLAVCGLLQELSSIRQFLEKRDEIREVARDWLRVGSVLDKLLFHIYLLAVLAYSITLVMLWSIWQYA
experimental-endpoint: IC50

>>> test_result("CC(C)(O)c1ccc(N2Cc3c(ccnc3-c3ccc(F)cc3OCC(F)(F)F)C2=O)cc1")
"> 10 µM"

----------
molecular target: UniProtKB P21728; assay: Safety47 Scan (DiscoverX - Eurofins)
Sequence (P21728 whole entry): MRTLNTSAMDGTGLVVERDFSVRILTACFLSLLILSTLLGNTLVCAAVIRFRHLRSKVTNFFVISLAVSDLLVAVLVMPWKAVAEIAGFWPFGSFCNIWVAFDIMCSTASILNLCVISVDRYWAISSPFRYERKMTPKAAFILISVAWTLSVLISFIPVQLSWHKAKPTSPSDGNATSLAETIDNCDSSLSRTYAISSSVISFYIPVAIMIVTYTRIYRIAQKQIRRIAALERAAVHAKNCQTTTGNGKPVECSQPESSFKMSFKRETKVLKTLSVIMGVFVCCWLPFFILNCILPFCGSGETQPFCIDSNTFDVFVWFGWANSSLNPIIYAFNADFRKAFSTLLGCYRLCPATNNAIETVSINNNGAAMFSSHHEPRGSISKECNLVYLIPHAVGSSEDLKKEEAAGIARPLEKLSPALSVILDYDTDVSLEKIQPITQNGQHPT
experimental-endpoint: EC50

>>> test_result("CC(C)(O)c1ccc(N2Cc3c(ccnc3-c3ccc(F)cc3OCC(F)(F)F)C2=O)cc1")
"> 10 µM"

----------
molecular target: Androgen receptor (Homo sapiens, UniProt P10275); test: Safety47 Scan (DiscoverX - Eurofins)
Sequence (P10275 whole entry): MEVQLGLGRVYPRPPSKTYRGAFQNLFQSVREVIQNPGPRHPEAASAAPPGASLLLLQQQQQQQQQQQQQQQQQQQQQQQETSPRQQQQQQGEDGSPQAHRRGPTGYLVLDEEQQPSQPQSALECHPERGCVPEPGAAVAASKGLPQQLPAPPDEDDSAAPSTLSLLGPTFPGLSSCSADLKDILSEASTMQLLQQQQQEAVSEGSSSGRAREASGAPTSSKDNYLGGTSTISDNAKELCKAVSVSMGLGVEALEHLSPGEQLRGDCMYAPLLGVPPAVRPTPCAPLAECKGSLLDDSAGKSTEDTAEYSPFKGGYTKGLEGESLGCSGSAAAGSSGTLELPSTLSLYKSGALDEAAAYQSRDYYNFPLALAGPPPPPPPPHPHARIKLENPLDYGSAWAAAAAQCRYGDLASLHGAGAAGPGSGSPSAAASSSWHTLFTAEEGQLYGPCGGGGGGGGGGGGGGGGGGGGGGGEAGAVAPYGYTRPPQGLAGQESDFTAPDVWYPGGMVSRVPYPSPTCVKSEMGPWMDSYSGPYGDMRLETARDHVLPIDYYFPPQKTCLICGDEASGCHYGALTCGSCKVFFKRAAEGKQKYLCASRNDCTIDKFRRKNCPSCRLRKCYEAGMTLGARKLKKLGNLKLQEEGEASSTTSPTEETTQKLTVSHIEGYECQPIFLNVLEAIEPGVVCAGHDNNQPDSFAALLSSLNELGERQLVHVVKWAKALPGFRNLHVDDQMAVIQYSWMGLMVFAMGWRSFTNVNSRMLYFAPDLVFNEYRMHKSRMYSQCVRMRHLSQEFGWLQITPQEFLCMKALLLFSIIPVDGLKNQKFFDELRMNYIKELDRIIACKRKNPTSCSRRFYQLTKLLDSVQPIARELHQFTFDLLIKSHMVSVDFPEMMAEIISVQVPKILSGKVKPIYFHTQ
pEC50: −log10 of the molar value.
experimental-endpoint: pEC50

>>> test_result("CC(C)(O)c1ccc(N2Cc3c(ccnc3-c3ccc(F)cc3OCC(F)(F)F)C2=O)cc1")
"< 5.00"

----------
target: Neuronal acetylcholine receptor; alpha4/beta2 (Homo sapiens, UniProt P17787+P43681); test: Safety47 Scan (DiscoverX - Eurofins)
pEC50: −log10 of the molar value.
experimental-endpoint: pEC50

>>> test_result("CC(C)(O)c1ccc(N2Cc3c(ccnc3-c3ccc(F)cc3OCC(F)(F)F)C2=O)cc1")
"< 5.00"
